Data provenance: patent US20220153852A1

- system: T1, CD25 on CD25-expressing human cells (SUDHL-1, SR786, regulatory T cells) (human, UniProt P01589 22-272)
- T1 sequence (looked up): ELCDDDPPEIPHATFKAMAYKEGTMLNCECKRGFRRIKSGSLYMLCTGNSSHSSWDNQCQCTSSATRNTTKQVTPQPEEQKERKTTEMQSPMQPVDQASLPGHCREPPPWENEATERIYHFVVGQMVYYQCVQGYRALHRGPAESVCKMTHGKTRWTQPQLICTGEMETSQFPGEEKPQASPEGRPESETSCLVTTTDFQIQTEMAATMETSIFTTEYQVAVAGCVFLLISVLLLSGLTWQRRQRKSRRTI
- run description: cell-based or functional assay
measurement name: Treg ADCC EC50 (ng/mL)
Your answer should be a plain number; it is taken to be in ng/mL.

Task: Dear colleague, I am looking for the recorded Treg ADCC EC50 of the following binder: hD11-H2-L2 (antibody, V domains shown) VH: QVQLVQSGAEVKKPGASVKVSCKGSGYTFTDYAMHWVRQAPGQGLEWMGVISTYSGDAIYAQKFQGRVTMTVDTSTSTAYMELSSLRSEDTAVYYCARGVTFDYWGQGTTVTVSS VL: DIQMTQSPSSLSASVGDRVTITCRASQDISNYLEWYQQKPGKAPKLLVYNAKTLAEGVPSRFSGSGSGTDFTLTISSLQPEDFGTYYCQHHYDTPYTFGQGTKLEIK
Result: 13.3

Task: And the next one, hD11-H3-L2 (hD11-H3h-L2) (antibody, V domains shown) VH: QVQLVQSGAEVKKPGASLKISCKGSGYTFTDYAMHWVRQAPGQGLEWIGVISTYSGDAIYAQKFQGRATMTVDTSTSTAYLELSSLRSEDTAVYYCARGVTFDYWGQGTTVTVSS VL: DIQMTQSPSSLSASVGDRVTITCRASQDISNYLEWYQQKPGKAPKLLVYNAKTLAEGVPSRFSGSGSGTDFTLTISSLQPEDFGTYYCQHHYDTPYTFGQGTKLEIK ?
Result: 4.8

Task: And the next one, hD11-H2b-L1 (antibody, V domains shown) VH: QVQLVQSGAEVKKPGASVKVSCKGSGYTFTDYAMHWVRQAPGQGLEWMGVISTYSGDAIYAQKFQGRVTMTVDKSTSTAYMELSSLRSEDTAVYYCARGVTFDYWGQGTTVTVSS VL: DIQMTQSPSSLSASVGDRVTITCRASQDISNYLEWYQQKPGKAPKLLIYNAKTLAEGVPSRFSGSGSGTDFTLTISSLQPEDFATYYCQHHYDTPYTFGQGTKLEIK ?
Result: 8.9

Task: And the next one, hD11-H1-L2 (antibody, V domains shown, Humanized variant of D11 (parental clone carries human IgG1)) VH: QVQLVQSGAEVKKPGASVKVSCKASGYTFTDYAMHWVRQAPGQGLEWMGVISTYSGDAIYAQKFQGRVTMTRDTSTSTVYMELSSLRSEDTAVYYCARGVTFDYWGQGTTVTVSS VL: DIQMTQSPSSLSASVGDRVTITCRASQDISNYLEWYQQKPGKAPKLLVYNAKTLAEGVPSRFSGSGSGTDFTLTISSLQPEDFGTYYCQHHYDTPYTFGQGTKLEIK ?
Result: 46.7

Task: And the next one, D11 (original or parental) (antibody, V domains shown, also called parental D11; original D11) VH: QIQLQQPGAELVRPGVSLKISCKGSGYTFTDYAMHWVRQSHAKSLEWIGVISTYSGDAIYNQKFKGKATMTVDKSSSTAYLELARLTSDDSAIYYCARGVTFDYWGQGTTVTVSS VL: DIQMTQTTSSLSASLGDRVTITCRASQDISNYLEWYQQKQGKSPQLLVYNAKTLAEGVPSRFSGSGSGTQFSLKINSLQPEDFGSYYCQHHYDTPYTFGGGTKLEIK ?
Result: 13.5

Task: And the next one, hD11-H3-L1 (hD11-H3h-L1) (antibody, V domains shown) VH: QVQLVQSGAEVKKPGASLKISCKGSGYTFTDYAMHWVRQAPGQGLEWIGVISTYSGDAIYAQKFQGRATMTVDTSTSTAYLELSSLRSEDTAVYYCARGVTFDYWGQGTTVTVSS VL: DIQMTQSPSSLSASVGDRVTITCRASQDISNYLEWYQQKPGKAPKLLIYNAKTLAEGVPSRFSGSGSGTDFTLTISSLQPEDFATYYCQHHYDTPYTFGQGTKLEIK ?
Result: 68.3

Task: And the next one, hD11-H3b-L2 (antibody, V domains shown) VH: QVQLVQSGAEVKKPGASLKISCKGSGYTFTDYAMHWVRQAPGQGLEWIGVISTYSGDAIYAQKFQGRATMTVDKSTSTAYLELSSLRSEDTAVYYCARGVTFDYWGQGTTVTVSS VL: DIQMTQSPSSLSASVGDRVTITCRASQDISNYLEWYQQKPGKAPKLLVYNAKTLAEGVPSRFSGSGSGTDFTLTISSLQPEDFGTYYCQHHYDTPYTFGQGTKLEIK ?
Result: 7.7

Task: And the next one, 7G7B6 (antibody, V domains shown) VH: EVQLVESGGDLVQPRGSLKLSCAASGFTFSSYGMSWVRQTPDKRLELVATINGYGDTTYYPDSVKGRFTISRDNAKNTLYLQMSSLKSEDTAMYFCARDRDYGNSYYYALDYWGQGTSVTVSS VL: QIVLSQSPAILSASPGERVTMTCRASSSVSFMHWLQQKPGSSPKPWIYATSNLASGVSARFSGSGSGTSYSLTITRVEAEDAATYYCQQWSSNPPAFGGGTKLEIK ?
Result: 19.4

Task: And the next one, hD11-H3b-L1 (antibody, V domains shown) VH: QVQLVQSGAEVKKPGASLKISCKGSGYTFTDYAMHWVRQAPGQGLEWIGVISTYSGDAIYAQKFQGRATMTVDKSTSTAYLELSSLRSEDTAVYYCARGVTFDYWGQGTTVTVSS VL: DIQMTQSPSSLSASVGDRVTITCRASQDISNYLEWYQQKPGKAPKLLIYNAKTLAEGVPSRFSGSGSGTDFTLTISSLQPEDFATYYCQHHYDTPYTFGQGTKLEIK ?
Result: 31.7

Task: And the next one, hD11-H2-L1 (antibody, V domains shown) VH: QVQLVQSGAEVKKPGASVKVSCKGSGYTFTDYAMHWVRQAPGQGLEWMGVISTYSGDAIYAQKFQGRVTMTVDTSTSTAYMELSSLRSEDTAVYYCARGVTFDYWGQGTTVTVSS VL: DIQMTQSPSSLSASVGDRVTITCRASQDISNYLEWYQQKPGKAPKLLIYNAKTLAEGVPSRFSGSGSGTDFTLTISSLQPEDFATYYCQHHYDTPYTFGQGTKLEIK ?
Result: 17.8

Task: And the next one, hD11-H1-L1 (antibody, V domains shown) VH: QVQLVQSGAEVKKPGASVKVSCKASGYTFTDYAMHWVRQAPGQGLEWMGVISTYSGDAIYAQKFQGRVTMTRDTSTSTVYMELSSLRSEDTAVYYCARGVTFDYWGQGTTVTVSS VL: DIQMTQSPSSLSASVGDRVTITCRASQDISNYLEWYQQKPGKAPKLLIYNAKTLAEGVPSRFSGSGSGTDFTLTISSLQPEDFATYYCQHHYDTPYTFGQGTKLEIK ?
Result: 20.6

Task: And the next one, hD11-H2b-L2 (antibody, V domains shown) VH: QVQLVQSGAEVKKPGASVKVSCKGSGYTFTDYAMHWVRQAPGQGLEWMGVISTYSGDAIYAQKFQGRVTMTVDKSTSTAYMELSSLRSEDTAVYYCARGVTFDYWGQGTTVTVSS VL: DIQMTQSPSSLSASVGDRVTITCRASQDISNYLEWYQQKPGKAPKLLVYNAKTLAEGVPSRFSGSGSGTDFTLTISSLQPEDFGTYYCQHHYDTPYTFGQGTKLEIK ?
Result: 14.5
